compound	melting point
COc1ccc(-c2coc3c(CO)c(OC)cc(O)c3c2=O)cc1 [Isoflavonoid 9b]	139 to 141 °C
COc1ccc(-c2coc3c(C)c(O)c(CO)cc3c2=O)cc1 [Isoflavonoid 8c]	153 to 155 °C
COc1ccc(-c2coc3c4c(ccc3c2=O)OC2(O)CCCCC2C4)cc1 (stereo not shown) [Isoflavonoid 24a]	222 to 223 °C
CC1(C)CC(=O)C2=C(C1)Oc1ccc3c(=O)c(-c4ccc5c(c4)OCO5)coc3c1C2 [Isoflavonoid 22c]	258 to 260 °C

----------
compound	melting point
O=c1c(-c2ccc3c(c2)OCCO3)coc2c3c(ccc12)OC1OCCC1C3 (stereo not shown) [Isoflavonoid 20d]	188 to 189 °C
O=c1c(-c2ccc3c(c2)OCO3)coc2c3c(ccc12)OC1(O)CCCCC1C3 (stereo not shown) [Isoflavonoid 24c]	197 °C
COc1ccc(-c2c(C)oc3c4c(ccc3c2=O)OC2(O)CCCCC2C4)cc1OC (stereo not shown) [Isoflavonoid 24h]	193 to 194 °C
COc1ccc(-c2c(C)oc3c4c(ccc3c2=O)OC2OCCC2C4)cc1OC (stereo not shown) [Isoflavonoid 20h]	217 to 219 °C

----------
Tested on: PC3 prostate cancer cells
Test: Cell proliferation assay in prostate cancer PC3 cells
Type: cell-based
Settings: Homo sapiens, PC-3
readout-kind: inhibition at 10 µM (%)

molecule	reported-result
COc1ccc(-c2coc3c(CO)c(OC)cc(O)c3c2=O)cc1	79.5
COCc1c(OC)cc(O)c2c(=O)c(-c3ccccc3OC)coc12 [Isoflavonoid 11a]	0
COc1ccc(-c2coc3c4c(ccc3c2=O)OC2(O)CCCCC2C4)cc1 (stereo not drawn) [Isoflavonoid 24a]	30
COc1ccc(-c2coc3cc(OC)c(COC(C)=O)c(OC(C)=O)c3c2=O)cc1	51.7
COc1ccccc1-c1coc2cc(OC)c(CO)c(O)c2c1=O	14.6
COc1ccc(-c2c(C)oc3c(COC(C)=O)c(OC(C)=O)ccc3c2=O)cc1	98.2
COc1ccc(-c2c(C)oc3c(CO)c(O)ccc3c2=O)cc1	99.5
COc1ccc(-c2coc3c4c(ccc3c2=O)OC2(O)CCCCC2C4)cc1OC (stereo not drawn) [Isoflavonoid 24b]	56
COCc1c(O)ccc2c(=O)c(-c3ccccc3OC)coc12 [Isoflavonoid 11c]	0

----------
Test system: PC3 prostate cancer cells
Assay: Cell proliferation assay in prostate cancer PC3 cells
Format: cell-based
Conditions: Homo sapiens, PC-3
Known inhibition at 10 µM of a selection of compounds

compound	unit-symbol	inhibition at 10 µM
COCc1c(O)ccc2c(=O)c(-c3ccc(OC)cc3)coc12 [Isoflavonoid 11d]	%	34.9
Cc1oc2c3c(ccc2c(=O)c1-c1ccc(Cl)cc1)OC1OCCCC1C3 (centres unmarked) [Isoflavonoid 21i]	%	74
COc1ccc(-c2coc3c(CO)c(O)ccc3c2=O)cc1 [Isoflavonoid 9d]	%	99.5
COc1ccccc1-c1coc2cc(OC)c(COC(C)=O)c(OC(C)=O)c2c1=O [Isoflavonoid 6a]	%	17.1
COc1ccc(-c2c(C)oc3c4c(ccc3c2=O)OC2OCCCC2C4)cc1OC (centres unmarked) [Isoflavonoid 21h]	%	44
COCc1c(OC)cc2occ(-c3ccccc3OC)c(=O)c2c1O [Isoflavonoid 10a]	%	53.4
COc1ccc(-c2coc3c4c(ccc3c2=O)OC2=C(C4)C(=O)CC(C)(C)C2)cc1OC [Isoflavonoid 22b]	%	86
COCc1c(OC)cc(O)c2c(=O)c(-c3ccc(OC)cc3)coc12 [Isoflavonoid 11b]	%	96.8
COc1ccc(-c2c(C)oc3c4c(ccc3c2=O)OC2(O)CCCCC2C4)cc1 (centres unmarked) [Isoflavonoid 24g]	%	78
COc1ccccc1-c1coc2c(COC(C)=O)c(OC(C)=O)ccc2c1=O [Isoflavonoid 7c]	%	20.6
COc1ccc(-c2coc3c(COC(C)=O)c(OC)cc(OC(C)=O)c3c2=O)cc1 [Isoflavonoid 7b]	%	20.2
O=c1c(-c2ccc3c(c2)OCO3)coc2c3c(ccc12)OC1OCCC1C3 (centres unmarked) [Isoflavonoid 20c]	%	47
COc1ccccc1-c1coc2c(CO)c(O)ccc2c1=O [Isoflavonoid 9c]	%	0
O=c1c(-c2ccc3c(c2)OCO3)coc2c3c(ccc12)OC1OCCCC1C3 (centres unmarked) [Isoflavonoid 21c]	%	68
COc1ccc(-c2coc3c(C)c4c(cc3c2=O)CC2CCOC2O4)cc1 (centres unmarked) [Isoflavonoid 25a]	%	78
O=c1c(-c2ccc(Cl)cc2)coc2c3c(ccc12)OC1OCCC1C3 (centres unmarked) [Isoflavonoid 20e]	%	63
COc1ccc(-c2coc3c(COC(C)=O)c(OC(C)=O)ccc3c2=O)cc1 [Isoflavonoid 7d]	%	99.2
